FYI, the data here is from patent EP3033337B1.

molecular target: human N-type Ca channel (Homo sapiens); experiment: Electrophysiological response, QPatch (depolarization -80 mV to +20 mV); settings: N Type IC50 Data Qpatch Pulse=15, Pulse=15; concentration range 0.3-10 µM
Sequence (Q00975 whole entry): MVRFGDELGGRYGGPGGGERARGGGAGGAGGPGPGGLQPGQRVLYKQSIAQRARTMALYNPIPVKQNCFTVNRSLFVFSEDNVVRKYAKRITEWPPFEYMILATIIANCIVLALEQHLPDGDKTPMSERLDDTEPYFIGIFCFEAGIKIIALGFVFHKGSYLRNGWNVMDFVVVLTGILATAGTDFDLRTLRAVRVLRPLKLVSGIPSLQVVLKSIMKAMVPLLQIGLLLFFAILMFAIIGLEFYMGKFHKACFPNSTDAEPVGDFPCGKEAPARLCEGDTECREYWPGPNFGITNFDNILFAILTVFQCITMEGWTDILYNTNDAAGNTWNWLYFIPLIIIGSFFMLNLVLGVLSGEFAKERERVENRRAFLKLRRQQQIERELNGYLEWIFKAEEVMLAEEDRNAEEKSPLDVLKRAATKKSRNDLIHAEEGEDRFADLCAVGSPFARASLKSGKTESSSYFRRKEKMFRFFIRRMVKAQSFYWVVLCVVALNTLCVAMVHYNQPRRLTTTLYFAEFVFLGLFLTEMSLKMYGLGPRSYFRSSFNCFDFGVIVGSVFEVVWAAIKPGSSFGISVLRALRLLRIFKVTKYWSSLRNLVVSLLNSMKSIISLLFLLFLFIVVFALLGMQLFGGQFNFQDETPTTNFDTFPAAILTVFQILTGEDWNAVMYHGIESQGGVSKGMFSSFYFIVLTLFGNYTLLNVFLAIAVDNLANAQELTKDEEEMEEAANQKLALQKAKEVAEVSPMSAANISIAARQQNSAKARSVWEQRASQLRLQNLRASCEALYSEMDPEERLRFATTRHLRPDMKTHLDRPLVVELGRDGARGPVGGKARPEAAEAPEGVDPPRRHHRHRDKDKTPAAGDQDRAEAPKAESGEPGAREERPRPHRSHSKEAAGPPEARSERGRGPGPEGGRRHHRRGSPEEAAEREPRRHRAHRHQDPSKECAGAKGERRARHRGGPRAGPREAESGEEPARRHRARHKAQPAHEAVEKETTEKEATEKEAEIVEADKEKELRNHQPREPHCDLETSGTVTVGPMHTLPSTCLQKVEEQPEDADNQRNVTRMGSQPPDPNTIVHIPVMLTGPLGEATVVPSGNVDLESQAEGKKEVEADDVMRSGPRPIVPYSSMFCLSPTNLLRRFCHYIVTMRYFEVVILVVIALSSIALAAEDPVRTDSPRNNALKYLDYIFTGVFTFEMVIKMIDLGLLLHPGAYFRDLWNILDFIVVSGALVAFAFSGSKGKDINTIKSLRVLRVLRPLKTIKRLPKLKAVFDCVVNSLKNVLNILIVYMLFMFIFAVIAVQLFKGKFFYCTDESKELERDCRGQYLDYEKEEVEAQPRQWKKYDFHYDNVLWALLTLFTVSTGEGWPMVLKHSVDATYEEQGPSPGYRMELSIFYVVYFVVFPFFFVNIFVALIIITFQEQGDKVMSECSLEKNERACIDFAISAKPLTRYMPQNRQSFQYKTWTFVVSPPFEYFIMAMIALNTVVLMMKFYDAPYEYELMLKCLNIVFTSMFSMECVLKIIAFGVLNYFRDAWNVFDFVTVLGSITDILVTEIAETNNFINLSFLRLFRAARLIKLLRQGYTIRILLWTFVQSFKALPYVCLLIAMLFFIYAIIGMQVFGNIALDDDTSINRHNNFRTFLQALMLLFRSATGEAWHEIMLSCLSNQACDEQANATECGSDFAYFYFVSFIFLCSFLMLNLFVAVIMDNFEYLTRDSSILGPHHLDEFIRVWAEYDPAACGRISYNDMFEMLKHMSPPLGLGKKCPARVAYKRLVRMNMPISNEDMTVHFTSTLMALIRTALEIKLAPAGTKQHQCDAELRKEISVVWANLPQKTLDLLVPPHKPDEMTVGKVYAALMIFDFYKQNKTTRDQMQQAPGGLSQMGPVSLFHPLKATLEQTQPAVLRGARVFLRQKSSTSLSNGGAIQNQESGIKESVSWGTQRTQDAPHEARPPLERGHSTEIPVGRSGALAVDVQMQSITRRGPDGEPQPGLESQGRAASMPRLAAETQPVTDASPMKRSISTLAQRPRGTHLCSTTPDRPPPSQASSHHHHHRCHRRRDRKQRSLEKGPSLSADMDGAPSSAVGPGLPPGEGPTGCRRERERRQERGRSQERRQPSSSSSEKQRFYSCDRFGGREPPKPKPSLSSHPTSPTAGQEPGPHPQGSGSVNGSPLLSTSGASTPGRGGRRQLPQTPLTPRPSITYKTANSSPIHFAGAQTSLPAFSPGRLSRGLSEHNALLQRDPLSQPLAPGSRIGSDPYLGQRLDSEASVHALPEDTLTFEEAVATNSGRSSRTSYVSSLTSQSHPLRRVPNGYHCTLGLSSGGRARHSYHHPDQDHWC
Sequence (P54284 whole entry partner): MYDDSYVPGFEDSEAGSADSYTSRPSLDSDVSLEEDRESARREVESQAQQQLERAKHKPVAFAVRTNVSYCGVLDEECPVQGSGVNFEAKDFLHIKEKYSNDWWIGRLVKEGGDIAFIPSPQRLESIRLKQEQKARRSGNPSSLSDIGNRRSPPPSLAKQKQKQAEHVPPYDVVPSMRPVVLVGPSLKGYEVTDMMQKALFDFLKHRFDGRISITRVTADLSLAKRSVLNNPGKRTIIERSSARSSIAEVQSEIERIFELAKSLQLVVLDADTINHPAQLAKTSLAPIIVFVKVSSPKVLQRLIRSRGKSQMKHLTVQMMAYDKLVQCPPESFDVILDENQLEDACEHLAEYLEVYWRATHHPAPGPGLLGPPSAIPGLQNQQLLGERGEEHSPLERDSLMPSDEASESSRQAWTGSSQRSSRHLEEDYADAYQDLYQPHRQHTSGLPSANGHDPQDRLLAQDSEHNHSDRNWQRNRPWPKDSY
Sequence (P54289 25-956 partner limits assumed): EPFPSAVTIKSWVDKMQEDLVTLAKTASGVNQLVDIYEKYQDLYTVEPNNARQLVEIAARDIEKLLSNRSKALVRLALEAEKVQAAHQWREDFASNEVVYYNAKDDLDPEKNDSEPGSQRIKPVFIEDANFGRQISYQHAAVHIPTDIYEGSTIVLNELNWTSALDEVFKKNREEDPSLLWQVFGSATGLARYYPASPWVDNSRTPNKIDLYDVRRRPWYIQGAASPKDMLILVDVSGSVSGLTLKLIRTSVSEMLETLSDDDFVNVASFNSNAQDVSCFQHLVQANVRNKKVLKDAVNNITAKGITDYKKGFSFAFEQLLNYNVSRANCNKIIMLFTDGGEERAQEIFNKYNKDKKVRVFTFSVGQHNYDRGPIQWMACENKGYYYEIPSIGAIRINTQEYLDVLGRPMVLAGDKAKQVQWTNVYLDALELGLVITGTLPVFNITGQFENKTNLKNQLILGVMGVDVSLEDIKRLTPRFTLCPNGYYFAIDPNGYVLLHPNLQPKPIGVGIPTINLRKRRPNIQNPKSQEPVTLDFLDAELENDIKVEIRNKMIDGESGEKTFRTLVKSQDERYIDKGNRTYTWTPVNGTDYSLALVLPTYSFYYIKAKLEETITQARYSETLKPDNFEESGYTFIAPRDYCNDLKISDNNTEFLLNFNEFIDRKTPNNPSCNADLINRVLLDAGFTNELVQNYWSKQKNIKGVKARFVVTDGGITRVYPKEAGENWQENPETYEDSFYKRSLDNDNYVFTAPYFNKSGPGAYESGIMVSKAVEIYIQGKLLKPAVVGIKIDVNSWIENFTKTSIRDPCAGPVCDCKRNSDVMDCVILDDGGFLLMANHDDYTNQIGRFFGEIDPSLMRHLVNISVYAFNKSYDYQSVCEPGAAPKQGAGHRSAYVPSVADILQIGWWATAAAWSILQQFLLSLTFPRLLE
Sequence (P54289 957-1103 partner limits assumed): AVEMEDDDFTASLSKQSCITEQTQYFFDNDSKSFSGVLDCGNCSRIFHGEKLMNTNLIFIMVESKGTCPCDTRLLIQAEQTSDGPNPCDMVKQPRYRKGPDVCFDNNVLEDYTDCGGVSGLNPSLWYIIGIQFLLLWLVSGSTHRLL
Under this convention, Condition met denotes IC50 strictly below 2000 nM and Condition not met denotes IC50 at or above 2000 nM.

smilesNotation: COc1cnccc1-c1nc(C2CC(C)(C)OC(C)(C)C2)cn1-c1ccc(Cl)cc1
categoryLabel: Condition met
--
smilesNotation: COc1cnccc1-c1nc(C2(O)CC(C)(C)OC(C)(C)C2)cn1-c1ccc(Cl)cc1
categoryLabel: Condition not met
--
smilesNotation: COc1cccnc1-c1nc(C2CC(C)(C)OC(C)(C)C2)cn1-c1ccc(F)c(Cl)c1
categoryLabel: Condition not met
--
smilesNotation: COc1ncccc1-c1nc(C2(O)CC(C)(C)OC(C)(C)C2)cn1-c1ccc(F)c(F)c1
categoryLabel: Condition not met
--
smilesNotation: COc1ccccc1-c1nc(C2CC(C)(C)OC(C)(C)C2)cn1S(=O)(=O)c1ccc(F)cc1
categoryLabel: Condition not met
--
smilesNotation: COc1ccccc1-c1nc(C2CC(C)(C)OC(C)(C)C2)cn1-c1ccc(Cl)c(F)c1
categoryLabel: Condition met
--
smilesNotation: COc1ncccc1-c1nc(C2CC(C)(C)OC(C)(C)C2)cn1-c1ccc(F)cc1
categoryLabel: Condition met
--
smilesNotation: COc1ccccc1-c1nc(C2CC(C)(C)OC(C)(C)C2)cn1-c1ccc(F)cc1
categoryLabel: Condition met
--
smilesNotation: COc1ncccc1-c1nc(C2(O)CC(C)(C)OC(C)(C)C2)cn1-c1ccc(Cl)cc1
categoryLabel: Condition not met
